# Measured target: T1, recombinant cynoPD-1 (construct not stated) (cynomolgus monkey, UniProt B0LAJ3 25-170)
# T1 construct: not shown: probably His as elsewhere
# T1 sequence (B0LAJ3 entry or part of it limits assumed): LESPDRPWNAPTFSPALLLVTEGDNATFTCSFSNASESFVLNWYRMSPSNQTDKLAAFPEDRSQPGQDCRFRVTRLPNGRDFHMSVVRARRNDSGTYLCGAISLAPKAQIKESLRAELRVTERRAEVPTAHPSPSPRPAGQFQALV
# Assay: ELISA
Observation type: Max OD (OD)
Numbers only, in OD.

Binder	Observation type	Measured result
z2-XVT458 (antibody, IgG1, V domains shown, full hIgG1; also called XVT458-z2; GH + T071V) VH: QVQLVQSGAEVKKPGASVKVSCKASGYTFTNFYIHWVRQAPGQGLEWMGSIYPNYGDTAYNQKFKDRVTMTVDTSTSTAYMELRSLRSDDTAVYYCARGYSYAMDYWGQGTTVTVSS VL: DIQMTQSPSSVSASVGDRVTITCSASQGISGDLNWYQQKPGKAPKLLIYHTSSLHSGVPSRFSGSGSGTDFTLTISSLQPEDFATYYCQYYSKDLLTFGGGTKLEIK	Max OD	3.32

For every listed record, write down its Max OD.
1. XVT458-z2-m3 (antibody, V domains shown, IgG format; also called z2_XVT458m3) VH: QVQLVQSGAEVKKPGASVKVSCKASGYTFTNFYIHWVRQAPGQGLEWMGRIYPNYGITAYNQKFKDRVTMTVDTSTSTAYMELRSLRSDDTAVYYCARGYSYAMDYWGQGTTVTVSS VL: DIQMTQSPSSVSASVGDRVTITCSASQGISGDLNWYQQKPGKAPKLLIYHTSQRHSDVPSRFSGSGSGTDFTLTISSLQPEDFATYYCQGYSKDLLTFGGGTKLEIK
2. XVT458-z2-m6 (antibody, V domains shown, IgG format; also called z2_XVT458m6) VH: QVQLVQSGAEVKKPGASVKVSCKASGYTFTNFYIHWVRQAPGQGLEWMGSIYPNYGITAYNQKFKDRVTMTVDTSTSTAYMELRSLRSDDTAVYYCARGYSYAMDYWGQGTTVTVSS VL: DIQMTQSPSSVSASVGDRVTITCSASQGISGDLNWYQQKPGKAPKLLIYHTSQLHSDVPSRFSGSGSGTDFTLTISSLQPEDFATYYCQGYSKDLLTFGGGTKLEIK
3. XVT458-z2-m5 (antibody, V domains shown, IgG format; also called z2_XVT458m5) VH: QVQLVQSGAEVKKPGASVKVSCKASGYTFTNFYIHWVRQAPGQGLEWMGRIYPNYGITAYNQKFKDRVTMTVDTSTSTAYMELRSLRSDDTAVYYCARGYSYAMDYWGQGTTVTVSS VL: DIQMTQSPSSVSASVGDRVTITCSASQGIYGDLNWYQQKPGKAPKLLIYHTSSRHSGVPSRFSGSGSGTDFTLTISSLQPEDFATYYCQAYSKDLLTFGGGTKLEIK

### Response
1: 3.54; 2: 3.69; 3: 3.58
